TEST SUMMARY: binders from COS7 lysate, DM2A8 probe, primary screen, torsin A project, cell lysate, small-molecule microarray, fluorescence 635/667 (AID 1065)
SETTINGS: higher = more signal, COS7 lysate expressing mutant human TOR1A
MEASURE NAME: composite z-score
Response field accepts a number only; no unit should be typed.

Recorded composite z-score (compound `C[C@@H]1CC[C@H]2C(=O)N3CCC[C@H]3C(=O)N2[C@H]1c1ccc(Br)cc1` ): 0.0769

composite z-score reading for `COCCCNC(=O)[C@@H]1c2ccccc2C(=O)N(CC23CC4CC(CC(C4)C2)C3)[C@H]1c1ccc(CO)cc1` : 0.173

Just so you know, measured composite z-score for C=CCC(OC(C)=O)[C@@H]1[C@@H](N(Cc2ccc(-c3cccc(C(F)(F)F)c3)o2)C(=O)Cc2ccc(F)cc2)c2cc(OCCCO)ccc2N1C(=O)c1ccc(-c2ccccc2)cc1 (some centres not stated) came out at -0.0983

Value of composite z-score reported for the compound `O=C1c2ccccc2[C@@]2(Cc3ccccc3N(CC(F)(F)F)C2=O)[C@H](c2ccc(CO)cc2)N1C1CCCCC1` is 0.438

Entry `CC(C)=C1C(=O)C(c2ccccc2)=C2CN3C(=O)N(CCc4ccccc4)C(=O)[C@]3(Cc3ccccc3)[C@H]21` — recorded composite z-score = -0.463

Entry `O=C1O[C@H](c2ccccc2)[C@H](c2ccccc2)N2[C@H]1[C@@H](C(=O)NC[C@H](O)c1ccccc1)[C@]1(C(=O)Nc3ccc(C#CC4(O)CCCCCC4)cc31)[C@H]2c1ccc(OCCO)cc1` , composite z-score reported as 0.634

composite z-score reading for `C[C@]1(C(=O)NCc2ccccc2)c2ccccc2C(=O)N(Cc2cc(C(F)(F)F)cc(C(F)(F)F)c2)[C@H]1c1ccc(CO)cc1` : 1.05
